Source of measurements: ChEMBL document CHEMBL3046301

For each entry below, report its MIC value.
- System: Bacillus subtilis
- method description: Genotoxicity in wild type Bacillus subtilis H17 assessed as growth inhibition
- Format: toxicity, organism-based
- assay context: in vivo
Numbers only, in µg/mL.

The following molecules each have a reported value; give each one's MIC.
1. CNc1ccc(-c2nc3ccccc3o2)cc1
2. Cc1ccc(Cc2nc3cc(N)ccc3o2)cc1
3. Cc1ccc2[nH]c(Cc3ccc(Br)cc3)nc2c1
4. CCOc1ccc(Cc2nc3cc([N+](=O)[O-])ccc3o2)cc1
5. Nc1ccc2oc(Cc3ccc(F)cc3)nc2c1
6. O=C(Nc1ccc2oc(-c3ccccc3)nc2c1)c1ccc(F)cc1
7. O=[N+]([O-])c1cc[n+]([O-])c2ccccc12 [4-NITROQUINOLINE-1-OXIDE]

RESULT:
[1000, 500, 30, 500, 500, 1000, 1000]

Fill in MIC for each of the 5 molecules listed.
1. O=[N+]([O-])c1ccc2oc(-c3ccccc3)nc2c1
2. CCc1ccc(-c2nc3cc(NC(=O)Cc4ccc(Br)cc4)ccc3o2)cc1
3. O=[N+]([O-])c1cc2oc(C3CCCCC3)nc2cc1Cl
4. Cc1ccc2nc(COc3ccccc3)oc2c1
5. Cc1ccc2oc(-c3ccccc3[N+](=O)[O-])nc2c1

RESULT:
1: 500; 2: 500; 3: 500; 4: 1000; 5: 500

====

- method description: Ratio of CR50 for wild type Bacillus subtilis H17 to CR50 for recombination-deficient Bacillus subtilis M45
- Format: ADME, organism-based
measured parameter: selectivity ratio
One number for each entry.

Value of measured selectivity ratio for the entry `O=C(Cc1ccc(F)cc1)Nc1ccc2oc(Cc3ccccc3)nc2c1` : 0.58

Per the records, this compound ( `Nc1ccc2oc(-c3ccc(Br)cc3)nc2c1` ) has selectivity ratio equal to 1.05

The reported selectivity ratio of the compound `Cc1ccc2nc(COc3ccccc3)oc2c1` was 0.93

For record O=[N+]([O-])c1cc[n+]([O-])c2ccccc12 [4-NITROQUINOLINE-1-OXIDE] the listed selectivity ratio is 0.69

// sample `O=C(Nc1ccc2oc(-c3ccccc3)nc2c1)c1ccc(F)cc1` , its selectivity ratio was 1.6

Here are 5 compounds. What values of selectivity ratio were reported for them?
1. Nc1ccc(-c2nc3cc(Cl)ccc3o2)cc1
2. CCc1ccc(-c2nc3cc(NC(=O)Cc4ccc(Br)cc4)ccc3o2)cc1
3. CCOc1ccc(Cc2nc3cc([N+](=O)[O-])ccc3o2)cc1
4. Cc1ccc2nc(-c3ccccc3Cl)oc2c1
5. Cc1ccc2[nH]c(Cc3ccc(Br)cc3)nc2c1

RESULT:
1. 1
2. 0.95
3. 1.27
4. 1.85
5. 0.49

I need selectivity ratio for every entry listed below, if you could help.
1. Clc1ccc2oc(Cc3ccc(Br)cc3)nc2c1
2. Nc1ccc2oc(Cc3ccc(F)cc3)nc2c1
3. O=[N+]([O-])c1ccc2oc(-c3ccccc3)nc2c1
4. Clc1ccc(OCc2nc3cc(Cl)ccc3o2)cc1
5. Cc1ccc(Cc2nc3cc(N)ccc3o2)cc1
6. Clc1ccc2[nH]c(CC3CCCCC3)nc2c1

RESULT:
[1.05, 1.25, 1.07, 1, 1.74, 0.93]

====

- Test system: Bacillus subtilis
- method description: Genotoxicity in wild type Bacillus subtilis H17 assessed as growth inhibition
- Assay type: toxicity, organism-based
- assay context: in vivo
measured parameter: MIC (µg/mL)
Give bare numbers, in µg/mL.

Bench note, Bacillus subtilis: `O=C(Cc1ccc(F)cc1)Nc1ccc2oc(Cc3ccccc3)nc2c1` , MIC reads 500

Simply: `Clc1ccc2oc(Cc3ccc(Br)cc3)nc2c1` , Bacillus subtilis, MIC = 1000

Please state, for each entry, its recorded MIC.
1. Cc1ccc2nc(-c3ccccc3Cl)oc2c1
2. Clc1ccc2[nH]c(CC3CCCCC3)nc2c1
3. Nc1ccc(-c2nc3cc(Cl)ccc3o2)cc1
4. Nc1ccc2oc(-c3ccc(Br)cc3)nc2c1
5. Clc1ccc(OCc2nc3cc(Cl)ccc3o2)cc1

RESULT:
[125, 1000, 2000, 1000, 500]

====

- method description: Ratio of CR50 for wild type Bacillus subtilis H17 to CR50 for recombination-deficient Bacillus subtilis M45
- Format: ADME, organism-based
Exercise: state measured selectivity ratio for each of the molecules provided.
Give bare numbers.

Looking up `O=[N+]([O-])c1cc2oc(C3CCCCC3)nc2cc1Cl` , I found its selectivity ratio recorded as 1.25

Form field selectivity ratio, entry `Cc1ccc2oc(-c3ccccc3[N+](=O)[O-])nc2c1` : 0.96

Next molecule, selectivity ratio to be filled in.
Per the record, `CNc1ccc(-c2nc3ccccc3o2)cc1` has selectivity ratio of 1.5
